Where these numbers come from: patent US20170247475A1

Target: VEGF
Assay: cell-based or functional assay
Quick list: % inhibition, VEGF HUVEC proliferation assay per entry.
Output should be the measured figure followed by the unit it is expressed in.

As a guide, the following entries are already answered.
VEGFBII021 (VHH, biparatopic bivalent VHH in one chain; also called VEGFBII23B04-40GS-5B05) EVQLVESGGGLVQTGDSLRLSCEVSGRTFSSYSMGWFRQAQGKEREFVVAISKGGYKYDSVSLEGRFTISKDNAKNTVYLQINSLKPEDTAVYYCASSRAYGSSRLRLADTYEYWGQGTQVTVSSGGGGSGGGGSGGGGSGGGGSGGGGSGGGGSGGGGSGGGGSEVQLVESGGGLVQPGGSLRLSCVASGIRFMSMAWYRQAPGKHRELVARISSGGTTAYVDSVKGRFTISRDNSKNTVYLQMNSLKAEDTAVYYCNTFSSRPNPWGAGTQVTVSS; 98%
VEGFBII010 (VHH, bivalent VHH in one chain; also called VEGFBII23B04-35GS-23B04; homodimeric VEGFBII23B04) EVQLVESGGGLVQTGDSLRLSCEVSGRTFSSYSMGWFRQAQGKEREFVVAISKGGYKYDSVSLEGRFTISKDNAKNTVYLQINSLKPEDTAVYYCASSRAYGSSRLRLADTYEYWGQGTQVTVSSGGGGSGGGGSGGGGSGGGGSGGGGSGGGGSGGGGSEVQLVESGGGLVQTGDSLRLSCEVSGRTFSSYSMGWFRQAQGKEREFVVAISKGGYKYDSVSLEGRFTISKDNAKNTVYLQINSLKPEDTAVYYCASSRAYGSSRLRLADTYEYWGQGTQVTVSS; 95%

Q: I'd like to know its % inhibition, VEGF HUVEC proliferation assay. The binder in question is VEGFBII022 (VHH, biparatopic bivalent VHH in one chain; also called VEGFBII23B04-9GS-5B05) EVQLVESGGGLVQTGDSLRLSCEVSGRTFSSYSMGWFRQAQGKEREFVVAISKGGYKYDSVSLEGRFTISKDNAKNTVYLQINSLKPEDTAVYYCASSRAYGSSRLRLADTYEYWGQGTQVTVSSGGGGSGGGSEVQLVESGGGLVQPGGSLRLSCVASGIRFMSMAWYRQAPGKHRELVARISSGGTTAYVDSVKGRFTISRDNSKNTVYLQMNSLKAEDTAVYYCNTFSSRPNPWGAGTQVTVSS
Ans: 100%
